experiment: Quantitative highthroughput screen to assess conditional lethalithy of SEM cells grown in Human Plasma-Like Medium with dialyzed fetal bovine serum (HPLM+ds) (AID 1963882); settings: SEM B-ALL cells in HPLM+ds, CellTiter-Glo viability, 48 h; series mostly up to 45.8 µM; also: nearly all actives have a fitted effect of over 35% in size
Inconclusive results are not listed. The source made the active and inactive calls. Calls follow the shape of the dose curve; as a rule, active = well fitted cell-killing curve with a large enough effect; inconclusive = small, poorly fitted or top-dose-only effect, or effect the other way; inactive = no such curve, though single readings can be large or run the other way.
Classes used: t = active, f = inactive

[[record]]
compound = "Cc1[nH]c(C=C2C(=O)Nc3ccc(S(=O)(=O)N(C)c4cccc(Cl)c4)cc32)c(C)c1C(=O)N1CCN(C)CC1"
class_assignment = "t"

[[record]]
compound = "C=C(C)[C@@H]1CC[C@]2(C(=O)O)CC[C@]3(C)[C@H](CC[C@@H]4[C@@]5(C)CC[C@H](O)C(C)(C)[C@@H]5CC[C@]43C)[C@@H]12"
class_assignment = "f"

[[record]]
compound = "C[C@H](NC(=O)[C@@H](O)c1cc(F)cc(F)c1)C(=O)N[C@@H]1C(=O)N(C)c2ccccc2-c2ccccc21"
class_assignment = "f"

[[record]]
compound = "COC(=O)Nc1ccc(-c2nc(N3CCOCC3)c3cnn(C4CCN(Cc5cccnc5)CC4)c3n2)cc1"
class_assignment = "t"

[[record]]
compound = "COc1ccc(Nc2nccc(NCCO)n2)cc1"
class_assignment = "f"

[[record]]
compound = "OCCN1C[C@H](O)[C@@H](O)[C@H](O)[C@@H]1CO"
class_assignment = "f"

[[record]]
compound = "COc1ccc(-n2c(C)c([N+](=O)[O-])c3ccc(O)cc32)cc1"
class_assignment = "f"

[[record]]
compound = "CCCCCCCCCCCCCCCCCCCCCCO"
class_assignment = "f"

[[record]]
compound = "C[C@H](NC(=O)Cc1cc(F)cc(F)c1)C(=O)N[C@@H]1C(=O)N(C)c2ccccc2-c2ccccc21"
class_assignment = "t"

[[record]]
compound = "COc1ccc(C(C)=O)c(O)c1"
class_assignment = "f"

[[record]]
compound = "C#Cc1cccc(Nc2ncnc3cc(OC)c(OCCCCCCC(=O)NO)cc23)c1"
class_assignment = "t"

[[record]]
compound = "CC(=O)Nc1nc(C)c(-c2ccc(Cl)c(S(=O)(=O)NCCO)c2)s1"
class_assignment = "t"

[[record]]
compound = "O=C(N[C@H](CO)[C@H](O)c1ccc([N+](=O)[O-])cc1)C(Cl)Cl"
class_assignment = "f"

[[record]]
compound = "Cc1cn([C@H]2C=C[C@@H](CO)O2)c(=O)[nH]c1=O"
class_assignment = "f"

[[record]]
compound = "CN(C)S(=O)(=O)c1ccc2c(c1)C(=Cc1cc3c([nH]1)CCCC3)C(=O)N2"
class_assignment = "f"

[[record]]
compound = "CCCCCCCCCCCC(CC1OC(=O)C1CCCCCC)OC(=O)C(CC(C)C)NC=O (stereo not given)"
class_assignment = "t"

[[record]]
compound = "O=C(CCCCCCC(=O)Nc1ccccc1)NO"
class_assignment = "t"

[[record]]
compound = "O=C(NC1CC1)c1cccc(-c2ccc3c(NC(=O)C4CC4)n[nH]c3c2)c1"
class_assignment = "t"

[[record]]
compound = "CCCc1cc(C(N)=S)ccn1"
class_assignment = "f"

[[record]]
compound = "O=c1c(-c2ccc(O)cc2)coc2cc(O[C@@H]3O[C@H](CO)[C@H](O)[C@H](O)[C@H]3O)ccc12"
class_assignment = "t"


###

experiment: Quantitative highthroughput screen to assess conditional lethalithy of SEM cells grown in Human Plasma-Like Medium with dialyzed fetal bovine serum (HPLM+ds) (AID 1963882); details: SEM B-ALL cells in HPLM+ds, CellTiter-Glo viability, 48 h; series mostly up to 45.8 µM; also: nearly all actives have a fitted effect of over 35% in size
Inconclusive results are not listed. Calls of active or inactive are those of the source. The call rests on the fitted dose curve; in most records, active means well fitted cell-killing curve with a large enough effect; inconclusive means small, poorly fitted or top-dose-only effect, or effect the other way; inactive means no such curve, though single readings can be large or run the other way.
Possible outcomes: active, inactive

[[record]]
compound = "Nc1nc2c(ncn2COC(CO)CO)c(=O)[nH]1"
class_assignment = "active"

[[record]]
compound = "Cn1c(Nc2ccc(C(F)(F)F)cc2)nc2cc(Oc3ccnc(-c4ncc(C(F)(F)F)[nH]4)c3)ccc21"
class_assignment = "active"

[[record]]
compound = "O=C1CCc2ccc(OCCCCN3CCN(c4cccc(Cl)c4Cl)CC3)cc2N1"
class_assignment = "inactive"

[[record]]
compound = "NCCS(=O)(=O)O"
class_assignment = "inactive"

[[record]]
compound = "C[C@]12C=CC(=O)C=C1CC[C@@H]1[C@@H]2[C@@H](O)C[C@@]2(C)[C@@H]1CC[C@]2(O)C(=O)CO"
class_assignment = "active"

[[record]]
compound = "CC(C)c1ccc(Cn2ccc3c4c(N)nc(NC5CC5)nc4ccc32)cc1"
class_assignment = "active"

[[record]]
compound = "CCNC(=O)c1cc2c(-c3cc(OCCN4CCCC4)c(Cl)cc3Cl)nc(N)nc2s1"
class_assignment = "active"

[[record]]
compound = "COc1cc(C=CC(=O)O)ccc1O"
class_assignment = "inactive"

[[record]]
compound = "CC(C)C(C)C=CC(C)C1CCC2C3=CC=C4CC(O)CCC4(C)C3CCC21C (stereo not given)"
class_assignment = "inactive"

[[record]]
compound = "CCCCCN(CCC12CC3CC(CC(C3)C1)C2)C(=O)NCCCc1ccncc1"
class_assignment = "inactive"


###

test: Cellular viability qHTS for adrenocortical cancer (ACC) cell line SW-13 (AID 1963989); conditions: SW-13 ACC cells viability, CellTiter-Glo, 48 h; also: potency is read from the fitted curve at half-maximal effect; nearly all actives have a fitted effect of over 65% in size
Records with an inconclusive call do not appear. Activity calls are given as the source filed them. Calls follow the shape of the dose curve; as a rule, active = well fitted cell-killing curve with a large enough effect; inconclusive = small, poorly fitted or top-dose-only effect; inactive = flat fitted curve, though single readings scatter.
Experimental Readout: Potency

[[record]]
compound = "C[C@H]1O[C@@H](O[C@H]2CC[C@@]3(C)[C@H](CC[C@@H]4[C@@H]3C[C@@H](O)[C@]3(C)[C@@H](C5=CC(=O)OC5)CC[C@]43O)C2)C[C@H](O)[C@@H]1O[C@H]1C[C@H](O)[C@H](O[C@H]2C[C@H](O)[C@H](O[C@@H]3O[C@H](CO)[C@@H](O)[C@H](O)[C@H]3O)[C@@H](C)O2)[C@@H](C)O1"
value = "0.082 µM (active)"

[[record]]
compound = "Oc1ccc(Cl)cc1Sc1cc(Cl)ccc1O"
value = "3.26 µM (active)"

[[record]]
compound = "Nc1cccc(-c2cc3c(Oc4cccc(O)c4)ncnc3[nH]2)c1"
value = "3.16 µM (active)"

[[record]]
compound = "COCCOC(=O)N1CCN(S(=O)(=O)c2cc(F)c(Oc3ccc(Cl)cc3)c(F)c2)C(C(=O)NO)C1 (stereo not drawn)"
value = "5.01 µM (active)"

[[record]]
compound = "O=C(Nc1nnc(-c2ccco2)o1)c1cc(-c2ccccc2)nc2ccccc12"
value = "20 µM (active)"

[[record]]
compound = "CCc1nc(C(N)=O)c(Nc2ccc(N3CCC(N4CCN(C)CC4)CC3)c(OC)c2)nc1NC1CCOCC1"
value = "17.8 µM (active)"

[[record]]
compound = "CCc1oc2ccccc2c1C(=O)c1cc(Br)c(O)c(Br)c1"
value = "7.31 µM (active)"

[[record]]
compound = "CN(C)c1ccc(C(=C2C=CC(=[N+](C)C)C=C2)c2ccccc2)cc1"
value = "0.82 µM (active)"

[[record]]
compound = "C[C@@]12O[C@@H](C[C@]1(O)CO)n1c3ccccc3c3c4c(c5c6ccccc6n2c5c31)CNC4=O"
value = "2.82 µM (active)"

[[record]]
compound = "O=c1[nH]nc(OCCCc2ccc(Cl)cc2)c(NCc2cccnc2)c1Br"
value = "7.94 µM (active)"

[[record]]
compound = "c1ccc(CNc2nc(NCc3ccccc3)c3ccccc3n2)cc1"
value = "3.98 µM (active)"

[[record]]
compound = "CC(C)CNc1ccnc(NCc2csc(-c3ccccc3)n2)n1"
value = "11.2 µM (active)"

[[record]]
compound = "Oc1ccc(-c2ccc(-c3cc(Nc4cccc(CNC5CC5)c4)n[nH]3)cc2)c(O)c1"
value = "25.1 µM (active)"

[[record]]
compound = "O=C1NC(=O)C(c2c[nH]c3ccccc23)=C1c1c[nH]c2ccccc12"
value = "25.1 µM (active)"

[[record]]
compound = "Cc1c(NC(=O)OCC2COCCN2)cn2ncnc(Nc3ccc4c(cnn4Cc4cccc(F)c4)c3)c12 (stereo not drawn)"
value = "22.4 µM (active)"

[[record]]
compound = "O=C1NC(=O)/C(=C/c2ccc3nccc(-c4ccncc4)c3c2)S1"
value = "1 µM (active)"

[[record]]
compound = "C/C=C/C/C=C/CCC(=O)[C@H]1O[C@H]1C(N)=O"
value = "25.1 µM (active)"

[[record]]
compound = "O=C(Nc1cn[nH]c1-c1nc2ccc(CN3CCOCC3)cc2[nH]1)NC1CC1"
value = "3.16 µM (active)"

[[record]]
compound = "CC1(C)OC2=C(C(=O)c3ccccc3C2=O)[C@H](NCc2ccccc2)[C@@H]1O"
value = "3.98 µM (active)"

[[record]]
compound = "COc1cc2nccc(Oc3ccc(NC(=O)Nc4cc(C)on4)c(Cl)c3)c2cc1OC"
value = "11.2 µM (active)"

[[record]]
compound = "COc1ccc(N(C)c2nc(C)nc3ccccc23)cc1"
value = "0.0112 µM (active)"

[[record]]
compound = "C=CC(=O)Nc1cccc(Nc2nc(Nc3ccc(OCCOC)cc3)ncc2F)c1"
value = "15.8 µM (active)"

[[record]]
compound = "C#Cc1cccc(Nc2ncnc3cc(OCCOC)c(OCCO)cc23)c1"
value = "6.31 µM (active)"

[[record]]
compound = "CN(C)CCOc1ccc(-c2nc(-c3ccc4c(c3)CC/C4=N\\O)c(-c3ccncc3)[nH]2)cc1"
value = "31.6 µM (active)"

[[record]]
compound = "Cc1ccc(C(=O)Nc2cccc(C(F)(F)F)c2)cc1Nc1nc(-c2cccnc2)nc2c1cnn2C"
value = "2.51 µM (active)"

[[record]]
compound = "Clc1ccc(COC(Cn2ccnc2)c2ccc(Cl)cc2Cl)c(Cl)c1 (stereo not drawn)"
value = "17.8 µM (active)"

[[record]]
compound = "C/C=C(/C(=C/C)c1ccc(O)cc1)c1ccc(O)cc1"
value = "14.1 µM (active)"

[[record]]
compound = "Cc1ccc(Sc2ccccc2N2CCNCC2)c(C)c1"
value = "25.1 µM (active)"

[[record]]
compound = "CCC[C@H](Nc1nc(-c2ccc(NC(=O)NCC)c(OC)c2)ncc1C)c1cccnc1"
value = "0.224 µM (active)"

[[record]]
compound = "CC(=O)Nc1ccc(C(=O)Nc2ccccc2N)cc1"
value = "11.2 µM (active)"

[[record]]
compound = "CCCS(=O)c1ccc2nc(NC(=O)OC)[nH]c2c1 (stereo not drawn)"
value = "25.1 µM (active)"

[[record]]
compound = "CCCNC(=O)[C@H]1O[C@@H]1C(=O)N[C@H](C(=O)N1CCC[C@H]1C(=O)OC)C(C)CC (stereo partly drawn)"
value = "10 µM (active)"

[[record]]
compound = "CCc1c2c(nc3ccc(O)cc13)-c1cc3c(c(=O)n1C2)COC(=O)[C@]3(O)CC"
value = "0.224 µM (active)"

[[record]]
compound = "C[C@@H]1COC(Nc2ccc3ncnc(Nc4ccc(OCc5nccs5)c(Cl)c4)c3c2)=N1"
value = "15.8 µM (active)"

[[record]]
compound = "CCN(CC)CCCCNc1ncc2c(n1)N(C)C(=O)N(c1c(Cl)c(OC)cc(OC)c1Cl)C2"
value = "25.1 µM (active)"

[[record]]
compound = "NC(=O)c1ccccc1Nc1ccnc(Nc2cccc(O)c2)n1"
value = "17.8 µM (active)"

[[record]]
compound = "CC(C)N(CCCNC(=O)Nc1ccc(C(C)(C)C)cc1)C[C@H]1O[C@@H](n2cc(Br)c3c(N)ncnc32)[C@H](O)[C@@H]1O"
value = "28.2 µM (active)"

[[record]]
compound = "O=C1Nc2nc(-c3c(O)cccc3OCC3CC3)cc([C@@H]3CCCNC3)c2CO1"
value = "22.4 µM (active)"


Reference source: PubChem BioAssay (NCATS)
